target: UniProt:P24666; assay: LMPTP primary screening / LMPTP (OMFP) enzyme inhibition assay, fluorescence intensity; assay type: biochemical; details: LMPTP-A, OMFP substrate, method of Example 2; read-out: IC50
Sequence (P24666 whole entry): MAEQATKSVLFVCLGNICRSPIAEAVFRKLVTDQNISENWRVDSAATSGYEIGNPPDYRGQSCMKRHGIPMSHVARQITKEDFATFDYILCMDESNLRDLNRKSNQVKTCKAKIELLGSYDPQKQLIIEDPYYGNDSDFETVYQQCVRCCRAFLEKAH
assay.metric: IC50

>>> df
                                    compound  assay_metric     measurement
 0  NC(=O)c1ccc(-c2cc(Nc3ccc(CC4CCNCC4)cc3)c3ccccc3n2)cc1          IC50       > 5000 nM
 1    c1ccc2c(NCCCN3CCCCC3)cc(-c3ccsc3)nc2c1          IC50       > 5000 nM
 2  CCN(CC)CCCNC(=O)c1ccc(-c2cc(NCCCN3CCCCC3)c3ccccc3n2)cc1          IC50   200 to 800 nM
 3  CN(C)S(=O)(=O)c1ccc(C(F)(F)F)c(-c2cc(NCCCN3CCCCC3)c3ccccc3n2)c1          IC50  801 to 5000 nM
 4  Cc1cccc(-c2cc(NCCCN3CCCCC3)c3ccccc3n2)c1C          IC50  801 to 5000 nM
 5  COc1ccc(-c2cc(Nc3ccc(OC(C)C)cc3)c3ccccc3n2)cc1          IC50  801 to 5000 nM
 6  COc1ccc(-c2cc(Nc3cccc(CN4CCCN(C)CC4)c3)c3ccccc3n2)cc1          IC50   200 to 800 nM
 7  CCOc1ncccc1-c1cc(NCCCN2CCCCC2)c2ccccc2n1          IC50  801 to 5000 nM
 8  CCN1CCC(Cc2cccc(Nc3cc(-c4cccc(NC(C)=O)c4)nc4ccccc34)c2)CC1          IC50  801 to 5000 nM
 9  COc1ccc(-c2cc(Nc3ccc(OC)nc3)c3ccccc3n2)cc1          IC50   200 to 800 nM
10  COc1ccc(-c2cc(NCCCc3cccnc3)c3ccccc3n2)cc1          IC50  801 to 5000 nM
11  CS(=O)(=O)c1ccc(-c2cc(NCCCN3CCCCC3)c3ccccc3n2)c(C(F)(F)F)c1          IC50  801 to 5000 nM
12  Clc1cccc(-c2cc(Nc3cccc(CC4CCNCC4)c3)c3ccccc3n2)c1 [Compound I19]          IC50  801 to 5000 nM
13  CCOC(=O)c1ccc(Nc2cc(-c3ccc(OC)cc3)nc3ccccc23)cc1          IC50       > 5000 nM
14     c1ccc(-c2cc(NCCN3CCCC3)c3ccccc3n2)cc1          IC50       > 5000 nM
15  CN1CCCC1CCNc1cc(-c2cc(C(F)(F)F)cc(C(F)(F)F)c2)nc2ccccc12 (centres unmarked)          IC50       > 5000 nM
16  O=S(=O)(c1ccccc1)n1ccc2cc(-c3cc(NCCCN4CCCCC4)c4ccccc4n3)ccc21          IC50  801 to 5000 nM
